Origin of values: patent US20150005253A1

System: leukemia progenitors (CFU-L) of AML patient samples
Test: Myeloid leukemic cell clonogenic assay on AML patient samples (ex vivo)
Assay type: cell-based, human
Conditions: Homo sapiens, range over AML patient samples; read-out: IC50 values ranging (all tested samples)
Measured endpoint: IC50

For CC(C)(C)NC(=O)Nc1nc2nc(Nc3ccc4nsnc4c3)ncc2cc1-c1c(Cl)cccc1Cl [Compound (A)] , what is its reported IC50?
≥ 3.8 nM

====

Tested on: leukemia progenitors (CFU-L) of AML patient samples
Experiment: Myeloid leukemic cell clonogenic assay on AML patient samples (ex vivo)
Assay type: cell-based, human
Settings: Homo sapiens, sensitive, N=26; read-out: IC50 minimum, sensitive samples
Measured endpoint: pIC50
API: returns pIC50 as number; meaning -log10 of concentration in mol/L.

State its pIC50 on leukemia progenitors (CFU-L) of AML patient samples: CC(C)(C)NC(=O)Nc1nc2nc(Nc3ccc4nsnc4c3)ncc2cc1-c1c(Cl)cccc1Cl
8.42

====

System: leukemia progenitors (CFU-L) of AML patient samples
Test: Myeloid leukemic cell clonogenic assay on AML patient samples (ex vivo)
Type: cell-based, human
Details: Homo sapiens, resistant, N=4 samples; read-out: IC50 minimum, resistant samples
Measured endpoint: pIC50
API: returns pIC50 as number; meaning -log10 of concentration in mol/L.

For CC(C)(C)NC(=O)Nc1nc2nc(Nc3ccc4nsnc4c3)ncc2cc1-c1c(Cl)cccc1Cl , what is its reported pIC50?
6.05
